assay: in vivo; details: dog
measuredEndpoint: half-life
Remember to follow the number with its unit.

half-life for CCn1nc(Cc2ccccc2)cc1C1CCN(C[C@H]2CN([C@@H](C(=O)O)C(C)(C)C)C[C@@H]2c2cccc(F)c2)CC1 ? 38.4 min

---

test: in vivo; details: rat
measuredEndpoint: log10 half-life (log10 of the value in h)
# log10 transformed; quantity=half-life; unit=h

CCn1nc(Cc2ccc(OC(C)C)cc2)cc1C1CCN(C[C@H]2CN([C@@H](C(=O)O)C(C)(C)C)C[C@@H]2c2cccc(F)c2)CC1    0.15
CC[C@H](C)[C@H](C(=O)O)N1C[C@H](CN2CCC(c3cc(Cc4ccccc4)nn3CC)CC2)[C@@H](c2cccc(F)c2)C1    -0.27
CCn1nc(Cc2cccc(F)c2)cc1C1CCN(C[C@H]2CN([C@@H](C(=O)O)C(C)C)C[C@@H]2c2cccc(F)c2)CC1    -0.10
CC[C@H](C)[C@H](C(=O)O)N1C[C@H](CN2CCC(c3cc(Cc4ccc(OC(F)(F)F)cc4)nn3CC)CC2)[C@@H](c2cccc(F)c2)C1    0.36
CC[C@H](C)[C@H](C(=O)O)N1C[C@H](CN2CCC(c3cc(Cc4ccc(C(C)C)cc4)nn3CC)CC2)[C@@H](c2cccc(F)c2)C1    0.07

GET /values?readout=log10 half-life&item= CCn1nc(Cc2ccccc2)cc1C1CCN(C[C@H]2CN([C@@H](C(=O)O)C(C)C)C[C@@H]2c2cccc(F)c2)CC1 0.15

What does the record list as log10 half-life for CCn1nc(Cc2ccc(OC(C)(C)C)cc2)cc1C1CCN(C[C@H]2CN([C@@H](C(=O)O)C3CCCCC3)C[C@@H]2c2cccc(F)c2)CC1 ? 0.00

Fill in the blank: the reported log10 half-life of CCn1nc(Cc2ccc(-c3ccccc3)cc2)cc1C1CCN(C[C@H]2CN([C@@H](C(=O)O)C(C)(C)C)C[C@@H]2c2cccc(F)c2)CC1 is ____. 0.95

What measured log10 half-life goes with CC[C@@H](C)[C@H](C(=O)O)N1C[C@H](CN2CCC(c3cc(Cc4ccc(OC(C)(C)C)cc4)nn3CC)CC2)[C@@H](c2cccc(F)c2)C1 ? 0.43

Endpoint output: log10 half-life of CC[C@@H](C)[C@H](C(=O)O)N1C[C@H](CN2CCC(c3cc(Cc4ccc(C#N)cc4)nn3CC)CC2)[C@@H](c2cccc(F)c2)C1 . Value? -0.13

Query: log10 half-life; subject: CCn1nc(Cc2ccc(C(C)(C)C)cc2)cc1C1CCN(C[C@H]2CN([C@@H](C(=O)O)C(C)(C)C)C[C@@H]2c2cccc(F)c2)CC1 0.40

Reported log10 half-life for CC[C@H](C)[C@H](C(=O)O)N1C[C@H](CN2CCC(c3cc(Cc4ccc(OC(C)(C)C)cc4)nn3CC)CC2)[C@@H](c2cccc(F)c2)C1 : what is it? 0.04

---

biological target: L-type calcium channel, benzothiazepine site (Rattus norvegicus, UniProt P22002+P27732+Q02485); test: Inhibition of binding to rat L-type Calcium channel benzothiazepine site at 10 uM; type: functional
Here, each record is paired with measured inhibition at 10 µM data.
Write the numeric value and append its unit.

Known results for compounds:
CCn1nc(Cc2ccc(C#N)cc2)cc1C1CCN(C[C@H]2CN([C@@H](C(=O)O)C(C)(C)C)C[C@@H]2c2cccc(F)c2)CC1    1%
CCn1nc(Cc2ccccc2)cc1C1CCN(C[C@H]2CN([C@@H](C(=O)O)C(C)C)C[C@@H]2c2cccc(F)c2)CC1    -3%

As a next step, examine the compound that follows.
Could you share which inhibition at 10 µM value was measured for CCn1nc(Cc2ccc(S(C)(=O)=O)cc2)cc1C1CCN(C[C@H]2CN([C@@H](C(=O)O)C(C)(C)C)C[C@@H]2c2cccc(F)c2)CC1 ? 15%

---

Each entry below carries its reported IC90.
test system: HeLa; assay: Antiviral activities in a cell culture HIV-1 infectivity inhibition assay using HeLa cells plus 50% normal human serum; assay type: functional
// units = nM; emit number, no label

Bench note: what IC90 did CC[C@@H](C)[C@H](C(=O)O)N1C[C@H](CN2CCC(c3cc(Cc4ccc(S(=O)(=O)c5ccccc5)cc4)nn3CC)CC2)[C@@H](c2cccc(F)c2)C1 show? 33

Need IC90, item CC[C@H](C)[C@H](C(=O)O)N1C[C@H](CN2CCC(c3cc(Cc4ccc(OC(F)F)cc4)nn3CC)CC2)[C@@H](c2cccc(F)c2)C1 11

Fill in the blank: the reported IC90 of CCn1nc(Cc2ccccc2)cc1C1CCN(C[C@H]2CN([C@@H](C(=O)O)C3CCCCC3)C[C@@H]2c2cccc(F)c2)CC1 is ____. 100

Data request, read-out IC90, for CCn1nc(Cc2ccc(-c3ccccc3)cc2)cc1C1CCN(C[C@H]2CN([C@@H](C(=O)O)C(C)C)C[C@@H]2c2cccc(F)c2)CC1 100

Look at this compound and give its reported IC90. CCn1nc(Cc2ccc(S(C)(=O)=O)cc2)cc1C1CCN(C[C@H]2CN([C@@H](C(=O)O)C3CCCCC3)C[C@@H]2c2cccc(F)c2)CC1 11

So what's the measured IC90 for this one? CC[C@H](C)[C@H](C(=O)O)N1C[C@H](CN2CCC(c3cc(Cc4ccc(OCc5ccccc5)cc4)nn3CC)CC2)[C@@H](c2cccc(F)c2)C1 300

---

assay: Plasma clearance in dog (dosed as a mixture of five compounds at 0.5 mpk each via iv only); type: ADME, organism-based, Canis lupus familiaris; details: read-out: Clp
measuredEndpoint: clearance (L/h/kg)
Return type: number; implicit unit L/h/kg.

Please review the entries below; each comes with its answer.
CCn1nc(Cc2ccccc2)cc1C1CCN(C[C@H]2CN([C@@H](C(=O)O)C(C)(C)C)C[C@@H]2c2cccc(F)c2)CC1    1.5
CC[C@H](C)[C@H](C(=O)O)N1C[C@H](CN2CCC(c3cc(Cc4ccc(OC(F)(F)F)cc4)nn3CC)CC2)[C@@H](c2cccc(F)c2)C1    0.228
CCn1nc(Cc2ccc(C(F)(F)F)cc2)cc1C1CCN(C[C@H]2CN([C@@H](C(=O)O)C(C)(C)C)C[C@@H]2c2cccc(F)c2)CC1    0.33
CCn1nc(Cc2ccc(OC)c(OC)c2)cc1C1CCN(C[C@H]2CN([C@@H](C(=O)O)C(C)(C)C)C[C@@H]2c2cccc(F)c2)CC1    0.84
CCOc1ccc(Cc2cc(C3CCN(C[C@H]4CN([C@@H](C(=O)O)C(C)(C)C)C[C@@H]4c4cccc(F)c4)CC3)n(CC)n2)cc1    0.78

Here is the next item to consider.
What measured clearance goes with CCn1nc(Cc2ccc(S(C)(=O)=O)cc2)cc1C1CCN(C[C@H]2CN([C@@H](C(=O)O)C(C)(C)C)C[C@@H]2c2cccc(F)c2)CC1 ? 6.48

---

assay: in vivo; conditions: rat
Everything with bioavailability lower than 40% is class 0; everything else, including exactly 40%, is class 1.

Worked set:
CCn1nc(Cc2ccc(OC3CCC3)cc2)cc1C1CCN(C[C@H]2CN([C@@H](C(=O)O)C(C)(C)C)C[C@@H]2c2cccc(F)c2)CC1    class 1
CCn1nc(Cc2ccc(OC(C)(C)C)cc2)cc1C1CCN(C[C@H]2CN([C@@H](C(=O)O)C3CCCCC3)C[C@@H]2c2cccc(F)c2)CC1    class 0
CCn1nc(Cc2ccc(OC)c(OC)c2)cc1C1CCN(C[C@H]2CN([C@@H](C(=O)O)C(C)(C)C)C[C@@H]2c2cccc(F)c2)CC1    class 0
CC[C@H](C)[C@H](C(=O)O)N1C[C@H](CN2CCC(c3cc(Cc4ccc(OC5CC5)cc4)nn3CC)CC2)[C@@H](c2cccc(F)c2)C1    class 0

API: the following record is the query input.
Is reported bioavailability greater than or equal to 40% here: CCn1nc(Cc2ccc(C(C)(C)C)cc2)cc1C1CCN(C[C@H]2CN([C@@H](C(=O)O)C(C)(C)C)C[C@@H]2c2cccc(F)c2)CC1 class 1

---

target: UniProtKB P51681; assay: Inhibitory concentration for displacement of [125I]-MIP-1 alpha from recombinant human CC chemokine receptor 5 (CCR5) expressed in CHO cell; assay type: cell-based
Sequence (P51681 whole entry): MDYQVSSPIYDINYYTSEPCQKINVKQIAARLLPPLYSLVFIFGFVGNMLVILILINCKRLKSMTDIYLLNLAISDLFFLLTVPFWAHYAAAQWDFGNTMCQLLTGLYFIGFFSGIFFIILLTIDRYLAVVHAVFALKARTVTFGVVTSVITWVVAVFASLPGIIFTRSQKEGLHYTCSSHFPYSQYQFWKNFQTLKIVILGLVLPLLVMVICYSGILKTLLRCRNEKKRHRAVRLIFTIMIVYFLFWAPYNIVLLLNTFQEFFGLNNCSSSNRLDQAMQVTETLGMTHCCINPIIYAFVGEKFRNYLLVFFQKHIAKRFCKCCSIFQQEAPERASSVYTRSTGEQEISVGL
measuredEndpoint: IC50 (nM)
Express your answer in nM, writing the number without its unit.

These solved cases illustrate the format of a correct answer.
CC[C@@H](C)[C@H](C(=O)O)N1C[C@H](CN2CCC(c3cc(Cc4ccc(O)cc4)nn3CC)CC2)[C@@H](c2cccc(F)c2)C1    0.6
CCCCOc1ccc(Cc2cc(C3CCN(C[C@H]4CN([C@@H](C(=O)O)[C@H](C)CC)C[C@@H]4c4cccc(F)c4)CC3)n(CC)n2)cc1    0.8
CCn1nc(Cc2ccc3ccccc3c2)cc1C1CCN(C[C@H]2CN([C@@H](C(=O)O)C(C)(C)C)C[C@@H]2c2cccc(F)c2)CC1    0.2
CCn1nc(Cc2ccc(S(=O)(=O)c3ccccc3)cc2)cc1C1CCN(C[C@H]2CN([C@@H](C(=O)O)C(C)C)C[C@@H]2c2cccc(F)c2)CC1    1.3
CCn1nc(Cc2cccc(F)c2)cc1C1CCN(C[C@H]2CN([C@@H](C(=O)O)C3CCCCC3)C[C@@H]2c2cccc(F)c2)CC1    1
CC[C@@H](C)[C@H](C(=O)O)N1C[C@H](CN2CCC(c3cc(Cc4ccc(S(=O)(=O)c5ccccc5)cc4)nn3CC)CC2)[C@@H](c2cccc(F)c2)C1    1.1
CCCCOc1ccc(Cc2cc(C3CCN(C[C@H]4CN([C@@H](C(=O)O)[C@@H](C)CC)C[C@@H]4c4cccc(F)c4)CC3)n(CC)n2)cc1    1
CC[C@H](C)[C@H](C(=O)O)N1C[C@H](CN2CCC(c3cc(Cc4ccc(OC(F)F)cc4)nn3CC)CC2)[C@@H](c2cccc(F)c2)C1    0.3
CCn1nc(Cc2ccc(OC(F)F)cc2)cc1C1CCN(C[C@H]2CN([C@@H](C(=O)O)C(C)C)C[C@@H]2c2cccc(F)c2)CC1    0.5
CCn1nc(Cc2ccc(C#N)cc2)cc1C1CCN(C[C@H]2CN([C@@H](C(=O)O)C(C)(C)C)C[C@@H]2c2cccc(F)c2)CC1    1.3

Need IC50, item CCn1nc(Cc2cccc(OC)c2)cc1C1CCN(C[C@H]2CN([C@@H](C(=O)O)C(C)(C)C)C[C@@H]2c2cccc(F)c2)CC1 0.7

Bench note: what IC50 did CCOc1ccc(Cc2cc(C3CCN(C[C@H]4CN([C@@H](C(=O)O)C(C)(C)C)C[C@@H]4c4cccc(F)c4)CC3)n(CC)n2)cc1 show? 0.9

Entry under review: CCn1nc(Cc2ccc(OC(C)(C)C)cc2)cc1C1CCN(C[C@H]2CN([C@@H](C(=O)O)C3CCCCC3)C[C@@H]2c2cccc(F)c2)CC1 . Reported IC50? 0.5
